# credit: patent US20170298395A1

# Tested on: cbb promoter
# Type: cell-based, Ralstonia eutropha
# Condition Set: Table 12, chemoautotrophic (induced) growth
Endpoint Name: Chemoautotrophic β-galactosidase activity

>>> result("D148N (protein) MSSFLRALTLRQLQIFVTVARHASFVRAAEELHLTQPAVSMQVKQLESVVGMALFERVKGQLTLTEPGDRLLHHASRILGEVKDAEEGLQAVKDVEQGSITIGLISTSKYFAPKLLAGFTALHPGVDLRIAEGNRETLLRLLQDNAINLALMGRPPRELDAVSEPIAAHPHVLVASPRHPLHDAKGFDLQELRHETFLLREPGSGTRTVAEYMFRDHLFTPAKVITLGSNETIKQAVMAGMGISLLSLHTLGLELRTGEIGLLDVAGTPIERIWHVAHMSSKRLSPASESCRAYLLEHTAEFLGREYGGLMPGRRVA")
"6442 nmol/min/mg of protein"
>>> result("G125D (protein) MSSFLRALTLRQLQIFVTVARHASFVRAAEELHLTQPAVSMQVKQLESVVGMALFERVKGQLTLTEPGDRLLHHASRILGEVKDAEEGLQAVKDVEQGSITIGLISTSKYFAPKLLAGFTALHPDVDLRIAEGNRETLLRLLQDNAIDLALMGRPPRELDAVSEPIAAHPHVLVASPRHPLHDAKGFDLQELRHETFLLREPGSGTRTVAEYMFRDHLFTPAKVITLGSNETIKQAVMAGMGISLLSLHTLGLELRTGEIGLLDVAGTPIERIWHVAHMSSKRLSPASESCRAYLLEHTAEFLGREYGGLMPGRRVA")
"6777 nmol/min/mg of protein"
>>> result("G205D/R283H (protein) MSSFLRALTLRQLQIFVTVARHASFVRAAEELHLTQPAVSMQVKQLESVVGMALFERVKGQLTLTEPGDRLLHHASRILGEVKDAEEGLQAVKDVEQGSITIGLISTSKYFAPKLLAGFTALHPGVDLRIAEGNRETLLRLLQDNAIDLALMGRPPRELDAVSEPIAAHPHVLVASPRHPLHDAKGFDLQELRHETFLLREPGSDTRTVAEYMFRDHLFTPAKVITLGSNETIKQAVMAGMGISLLSLHTLGLELRTGEIGLLDVAGTPIERIWHVAHMSSKHLSPASESCRAYLLEHTAEFLGREYGGLMPGRRVA")
"4480 nmol/min/mg of protein"

Inquiry: For L79F (protein) MSSFLRALTLRQLQIFVTVARHASFVRAAEELHLTQPAVSMQVKQLESVVGMALFERVKGQLTLTEPGDRLLHHASRIFGEVKDAEEGLQAVKDVEQGSITIGLISTSKYFAPKLLAGFTALHPGVDLRIAEGNRETLLRLLQDNAIDLALMGRPPRELDAVSEPIAAHPHVLVASPRHPLHDAKGFDLQELRHETFLLREPGSGTRTVAEYMFRDHLFTPAKVITLGSNETIKQAVMAGMGISLLSLHTLGLELRTGEIGLLDVAGTPIERIWHVAHMSSKRLSPASESCRAYLLEHTAEFLGREYGGLMPGRRVA , write its Chemoautotrophic β-galactosidase activity.
Reply text: 6840 nmol/min/mg of protein
